# IC50 values compiled below
Biological target: 6×HIS-tankyrase 1 (1091-1325) (Homo sapiens (Human), UniProt O95271)
Sequence (O95271 1091-1325): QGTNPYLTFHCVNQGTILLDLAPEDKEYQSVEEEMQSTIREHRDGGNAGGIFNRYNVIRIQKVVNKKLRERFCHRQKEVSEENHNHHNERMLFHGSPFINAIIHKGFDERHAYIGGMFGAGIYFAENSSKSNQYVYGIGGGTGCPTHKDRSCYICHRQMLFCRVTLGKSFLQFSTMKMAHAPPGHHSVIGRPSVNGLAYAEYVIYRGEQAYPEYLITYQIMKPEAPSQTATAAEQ
Experiment: biochemical
Assay type: biochemical
Conditions: 0.25 nM enzyme, 400 nM NAD, 60 minutes at room temperature; read-out: TNKS1 IP IC50
# number only, unit µM dropped from output

Example compounds with recorded IC50:
# compound, recorded-metric, observed-value
measured = [
    ("CC1(C)OC(=O)N([C@H]2CC[C@@H](c3cnc4[nH]ccc4c3)CC2)[C@H]1c1ccccc1 [Example 136]", "IC50", 0.00517),
    ("CC1(C)OC(=O)N(c2ccc(C(=O)Nc3cccc4cccnc34)cc2)C1c1cccnc1 (racemic) [Example 9]", "IC50", 1.16),
    ("COc1ccc(C2N(c3ccc(C(=O)Nc4cccc5cccnc45)cc3)C(=O)OC2(C)C)cc1 (racemic) [Example 111]", "IC50", 0.631),
]

Data request, read-out IC50, for CC1(C)OC(=O)N([C@H]2C[C@H](c3nnc(-c4ccccc4)o3)C2)[C@@H]1c1ccccc1 (single isomer, unassigned) [Example 176]
3.13

Data request, read-out IC50, for CC1(C)OC(=O)N([C@H]2C[C@H](c3nnc(-c4ccccc4)o3)C2)[C@H]1c1ccccc1 (single isomer, unassigned) [Example 177]
1.02

Data request, read-out IC50, for CC1(C)OC(=O)N(c2ccc(C(=O)Nc3cccc4cccnc34)cc2)C1c1cccc(F)c1 (racemic) [Example 108]
0.551

Data request, read-out IC50, for CC1(C)OC(=O)N(c2ccc(-c3cnc(N)c(-c4nccc(C(=N)N)n4)c3)cc2)[C@H]1c1ccccc1 [Example 99]
0.0143
